Hello, the source for this data is paper PMC11643744, in case you need it.

experiment: PAMPA-BBB assay; details: 20 h incubation, mean ± SEM
Peptide text beside a SMILES is read from it. * marks the point of attachment. Propioloyl = C#CC(=O)*

{"columns": ["compound", "R, mass retention (%)"],
 "data": [
  ["C#CC(=O)N[C@@H](CCCNC(=N)N)C(=O)N[C@@H](CCCNC(=N)N)C(=O)N[C@@H](CCCNC(=N)N)C(=O)N[C@@H](CCCNC(=N)N)C(=O)N[C@@H](CCCNC(=N)N)C(=O)N[C@@H](CCCNC(=N)N)C(=O)N[C@@H](CCCNC(=N)N)C(=O)N[C@@H](CCCNC(=N)N)C(=O)N[C@@H](CCCNC(=N)N)C(N)=O", 8.0],
  ["C#CC(=O)N[C@@H](Cc1ccc(O)cc1)C(=O)NCC(=O)N[C@@H](CCCNC(=N)N)C(=O)N[C@@H](CCCCN)C(=O)N[C@@H](CCCCN)C(=O)N[C@@H](CCCNC(=N)N)C(=O)N[C@@H](CCCNC(=N)N)C(=O)N[C@@H](CCC(N)=O)C(=O)N[C@@H](CCCNC(=N)N)C(=O)N[C@@H](CCCNC(=N)N)C(=O)N[C@@H](CCCNC(=N)N)C(N)=O", 3.3],
  ["C#CC(=O)N[C@@H](Cc1ccc(O)cc1)C(=O)N[C@@H](C)C(=O)N[C@@H](CCCNC(=N)N)C(=O)N[C@@H](C)C(=O)N[C@@H](C)C(=O)N[C@@H](C)C(=O)N[C@@H](CCCNC(=N)N)C(=O)N[C@@H](CCC(N)=O)C(=O)N[C@@H](C)C(=O)N[C@@H](CCCNC(=N)N)C(=O)N[C@@H](C)C(N)=O [compound 9] (Propioloyl-YARAAARQARA-NH2)", 6.7],
  ["CN[C@H](CC(C)C)C(=O)N[C@H]1C(=O)N[C@@H](CC(N)=O)C(=O)N[C@H]2C(=O)N[C@H]3C(=O)N[C@H](C(=O)N[C@H](C(=O)O)c4cc(O)cc(O)c4-c4cc3ccc4O)[C@H](O)c3ccc(c(Cl)c3)Oc3cc2cc(c3O[C@@H]2O[C@H](CO)[C@@H](O)[C@H](O)[C@H]2O[C@H]2C[C@](C)(N)[C@H](O)[C@H](C)O2)Oc2ccc(cc2Cl)[C@H]1O", 11.3]
]}
